molecular target: P2Y1 receptor (Homo sapiens, UniProt P47900); construct: expressed in transfected cells; assay: Cell based HTRF assay measuring IP1 accumulation; antagonism of the P2Y1 agonist MRS2365; details: rounded to nearest whole number; read-out: IC50 IP1
Sequence (P47900 whole entry): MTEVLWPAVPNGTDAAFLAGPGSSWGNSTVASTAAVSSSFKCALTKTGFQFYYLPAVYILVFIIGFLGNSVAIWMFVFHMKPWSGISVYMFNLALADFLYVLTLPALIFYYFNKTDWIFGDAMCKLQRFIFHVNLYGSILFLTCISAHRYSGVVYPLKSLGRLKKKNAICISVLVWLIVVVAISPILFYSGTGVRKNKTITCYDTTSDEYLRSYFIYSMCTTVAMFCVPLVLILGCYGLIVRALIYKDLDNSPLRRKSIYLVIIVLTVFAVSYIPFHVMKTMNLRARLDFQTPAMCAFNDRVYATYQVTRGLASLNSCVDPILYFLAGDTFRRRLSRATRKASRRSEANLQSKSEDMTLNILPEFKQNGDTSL
readout: IC50 (nM)

Past entries and their recorded results:
entry.smiles: O=C(Nc1ccc(F)cc1F)Nc1cccnc1Oc1ccc(C(F)(F)F)cc1
readout: IC50
measured.number: 7940
--
entry.smiles: O=C(Nc1ccc(OC(F)(F)F)cc1)Nc1cccnc1Oc1ccccc1
readout: IC50
measured.number: 2860
--
entry.smiles: CC(C)(C)c1ccccc1Oc1ccsc1NC(=O)Nc1ccc(OC(F)(F)F)cc1
readout: IC50
measured.number: 1060

[P] Cc1cccc(Oc2ncccc2NC(=O)Nc2ccc(OC(F)(F)F)cc2)c1
[Q] Cc1c(Oc2ncccc2NC(=O)Nc2ccc(OC(F)(F)F)cc2)cccc1N1CCC2(CC1)COC2
[R] CCOC(=O)c1nnc(NC(=O)Nc2cccnc2Oc2ccccc2C(C)(C)C)s1
[S] Cc1c(Oc2ncccc2NC(=O)Nc2ccc(OC(F)(F)F)cc2)cccc1-c1ccccc1
[T] Cc1c(Oc2ncccc2NC(=O)Nc2ccc(OC(F)(F)F)cc2)cccc1N(C)C
// ascending sort on recorded IC50 Answer with the labels in sequence, matching the requested order. S, T, Q, P, R
(S: 99 nM, T: 151 nM, Q: 732 nM, P: 1100 nM, R: 9680 nM)

Entry source: patent EP4094762A1
